molecular target: D(2) dopamine receptor (Rattus norvegicus, UniProt P61169); experiment: Agonist activity at Rattus norvegicus (rat) dopamine D2 receptor transfected in african green monkey COS7 cells assessed as inhibition of forskolin-stimulated adenylyl cyclase activity after 10 min
Sequence (P61169 whole entry): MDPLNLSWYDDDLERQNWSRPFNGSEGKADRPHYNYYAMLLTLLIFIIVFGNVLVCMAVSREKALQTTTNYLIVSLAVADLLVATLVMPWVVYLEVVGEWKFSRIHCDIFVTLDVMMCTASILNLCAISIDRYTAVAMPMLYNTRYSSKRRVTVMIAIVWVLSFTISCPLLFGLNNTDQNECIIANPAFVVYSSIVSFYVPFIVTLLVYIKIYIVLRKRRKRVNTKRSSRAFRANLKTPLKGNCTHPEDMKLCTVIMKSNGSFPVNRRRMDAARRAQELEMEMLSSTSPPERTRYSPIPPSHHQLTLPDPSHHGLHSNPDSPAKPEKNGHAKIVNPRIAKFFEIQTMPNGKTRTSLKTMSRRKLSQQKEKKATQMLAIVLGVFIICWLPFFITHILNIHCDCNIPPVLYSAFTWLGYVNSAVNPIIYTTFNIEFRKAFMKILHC
Measured quantity: EC50 (nM)
Express it in nM; write the number only.

[
  {
    "Compound": "CCCN1CCO[C@@H]2c3cc(C(N)=O)ccc3CC[C@H]21 (relative stereo)",
    "Measured quantity": "EC50",
    "Experimental value": 49.5
  }
]

Please find the next compound below.
Which EC50 value belongs to CCCN(CCC)CCc1cccc2c1CC(=O)N2 [ROPINIROLE] ? 75.5

---

biological target: UniProt:P19020
Measured quantity: pIC50
pIC50 is a log-scale quantity: -log10 of the concentration expressed in molar.

Which pIC50 value belongs to CCCN[C@H]1CCc2nc(N)sc2C1 [PRAMIPEXOLE] ? 8.11

---

biological target: D(3) dopamine receptor (Rattus norvegicus)
Sequence (P19020 whole entry): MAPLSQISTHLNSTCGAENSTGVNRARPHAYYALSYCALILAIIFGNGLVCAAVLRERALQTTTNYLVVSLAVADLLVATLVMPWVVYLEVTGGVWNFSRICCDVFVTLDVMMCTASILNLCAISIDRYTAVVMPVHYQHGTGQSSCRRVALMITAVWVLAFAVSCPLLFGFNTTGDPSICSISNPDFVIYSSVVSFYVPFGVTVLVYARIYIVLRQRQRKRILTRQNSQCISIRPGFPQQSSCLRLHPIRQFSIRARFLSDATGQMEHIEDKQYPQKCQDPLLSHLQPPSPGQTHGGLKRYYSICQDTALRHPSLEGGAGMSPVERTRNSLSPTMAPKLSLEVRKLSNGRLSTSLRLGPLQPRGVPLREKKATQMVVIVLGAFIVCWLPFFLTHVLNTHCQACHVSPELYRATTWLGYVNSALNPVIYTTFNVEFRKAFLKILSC
Measured quantity: Ki (nM)
Express it in nM; write the number only.

Which Ki value belongs to "N#Cc1ccc2c(c1)[C@H]1CN(CCCCNC(=O)c3ccc(-c4ccccc4)cc3)C[C@@H]1CO2" ? 2.42
